Measured AUC(0-t) values are reported for all entries that follow.
Experiment Summary: Plasma PK of rosuvastatin and oral contraceptives with and without rucaparib (phase 1 DDI study, noncompartmental analysis)
Type: in vivo, human
Test Settings: human, plasma, po, without rucaparib (day 1); single oral dose; plasma; read-out: AUC0–last, Mean (SD)
Readout Name: AUC(0-t)

molecule="CC(C)c1nc(N(C)S(C)(=O)=O)nc(-c2ccc(F)cc2)c1/C=C/[C@@H](O)C[C@@H](O)CC(=O)O [rosuvastatin]" endpoint_result="193 ng·h/mL"
molecule="C#C[C@]1(O)CC[C@H]2[C@@H]3CCc4cc(O)ccc4[C@H]3CC[C@@]21C [ethinylestradiol]" endpoint_result="0.804 ng·h/mL"
molecule="C#C[C@]1(O)CC[C@H]2[C@@H]3CCC4=CC(=O)CC[C@@H]4[C@H]3CC[C@@]21CC [levonorgestrel]" endpoint_result="59.7 ng·h/mL"

---

Experiment Summary: Plasma PK of rosuvastatin and oral contraceptives with and without rucaparib (phase 1 DDI study, noncompartmental analysis)
Assay type: in vivo, human
Test Settings: human, plasma, po, 600 mg, with rucaparib 600 mg BID (day 19); single oral dose; plasma; read-out: Cmax, GM (%CV)
Readout Name: Cmax (ng/mL)

smiles_input=C#C[C@]1(O)CC[C@H]2[C@@H]3CCc4cc(O)ccc4[C@H]3CC[C@@]21C endpoint_result=0.0784
smiles_input=CC(C)c1nc(N(C)S(C)(=O)=O)nc(-c2ccc(F)cc2)c1/C=C/[C@@H](O)C[C@@H](O)CC(=O)O endpoint_result=18.1
smiles_input=C#C[C@]1(O)CC[C@H]2[C@@H]3CCC4=CC(=O)CC[C@@H]4[C@H]3CC[C@@]21CC endpoint_result=3.43

---

Experiment Summary: Plasma PK of rosuvastatin and oral contraceptives with and without rucaparib (phase 1 DDI study, noncompartmental analysis)
Format: in vivo, human
Test Settings: human; with rucaparib 600 mg BID (day 19); single oral dose; plasma; read-out: tmax, Median (range)
Below, each entry is listed with its recorded Tmax.
Readout Name: Tmax

smiles_input=CC(C)c1nc(N(C)S(C)(=O)=O)nc(-c2ccc(F)cc2)c1/C=C/[C@@H](O)C[C@@H](O)CC(=O)O readout_name=Tmax endpoint_result="2 h"
smiles_input=C#C[C@]1(O)CC[C@H]2[C@@H]3CCC4=CC(=O)CC[C@@H]4[C@H]3CC[C@@]21CC readout_name=Tmax endpoint_result="1.5 h"

---

Experiment Summary: Plasma PK of rosuvastatin and oral contraceptives with and without rucaparib (phase 1 DDI study, noncompartmental analysis)
Format: in vivo, human
Test Settings: human, plasma, po, 600 mg, with rucaparib 600 mg BID (day 19); single oral dose; read-out: VZ/F, GM (%CV)
The molecules listed here are annotated with their Vd/F.
Readout Name: Vd/F (L)

smiles_input=C#C[C@]1(O)CC[C@H]2[C@@H]3CCc4cc(O)ccc4[C@H]3CC[C@@]21C output_unit=L endpoint_result=653
smiles_input=CC(C)c1nc(N(C)S(C)(=O)=O)nc(-c2ccc(F)cc2)c1/C=C/[C@@H](O)C[C@@H](O)CC(=O)O output_unit=L endpoint_result=2280
smiles_input=C#C[C@]1(O)CC[C@H]2[C@@H]3CCC4=CC(=O)CC[C@@H]4[C@H]3CC[C@@]21CC output_unit=L endpoint_result=77.6

---

Experiment Summary: Plasma PK of rosuvastatin and oral contraceptives with and without rucaparib (phase 1 DDI study, noncompartmental analysis)
Format: in vivo, human
Test Settings: human, plasma, po, 600 mg, with rucaparib 600 mg BID (day 19); single oral dose; plasma; read-out: AUC0–inf, Median (range)
Source text: This was a 2-part, phase 1, open-label, 2-arm DDI study in patients with advanced solid tumors. In Part 1 of the study, patients were screened for eligibility from day − 28 to − 2 and visited the study site from day − 1 to 23 (Fig. 1). […] Other PK parameters, calculated for the probe drugs, included half-life (t1/2), tmax, apparent total clearance of drug after oral administration (CL/F), and apparent volume of distribution during terminal phase (VZ/F). […]
The reader will find reported AUC(0-inf) values listed item by item below.
Readout Name: AUC(0-inf) (ng·h/mL)

smiles_input=C#C[C@]1(O)CC[C@H]2[C@@H]3CCC4=CC(=O)CC[C@@H]4[C@H]3CC[C@@]21CC output_unit=ng·h/mL endpoint_result=87.3
smiles_input=CC(C)c1nc(N(C)S(C)(=O)=O)nc(-c2ccc(F)cc2)c1/C=C/[C@@H](O)C[C@@H](O)CC(=O)O output_unit=ng·h/mL endpoint_result=212
smiles_input=C#C[C@]1(O)CC[C@H]2[C@@H]3CCc4cc(O)ccc4[C@H]3CC[C@@]21C output_unit=ng·h/mL endpoint_result=1.37

---

Overview of recorded half-life for various molecules
Experiment Summary: Plasma PK of rosuvastatin and oral contraceptives with and without rucaparib (phase 1 DDI study, noncompartmental analysis)
Format: in vivo, human
Test Settings: human, plasma, po, 600 mg, with rucaparib 600 mg BID (day 19); single oral dose; plasma; read-out: t1/2, Median (range) (converted)
Readout Name: half-life (h)

smiles_input=C#C[C@]1(O)CC[C@H]2[C@@H]3CCC4=CC(=O)CC[C@@H]4[C@H]3CC[C@@]21CC readout_name=half-life output_unit=h endpoint_result=43.6
smiles_input=C#C[C@]1(O)CC[C@H]2[C@@H]3CCc4cc(O)ccc4[C@H]3CC[C@@]21C readout_name=half-life output_unit=h endpoint_result=27.1
smiles_input=CC(C)c1nc(N(C)S(C)(=O)=O)nc(-c2ccc(F)cc2)c1/C=C/[C@@H](O)C[C@@H](O)CC(=O)O readout_name=half-life output_unit=h endpoint_result=16.1

---

Experiment Summary: Plasma PK of rosuvastatin and oral contraceptives with and without rucaparib (phase 1 DDI study, noncompartmental analysis)
Assay type: in vivo, human
Test Settings: human, plasma, po, 600 mg, with rucaparib 600 mg BID (day 19); single oral dose; plasma; read-out: t1/2, Mean (SD) (converted)
Text: This was a 2-part, phase 1, open-label, 2-arm DDI study in patients with advanced solid tumors. In Part 1 of the study, patients were screened for eligibility from day − 28 to − 2 and visited the study site from day − 1 to 23 (Fig. 1). […] Other PK parameters, calculated for the probe drugs, included half-life (t1/2), tmax, apparent total clearance of drug after oral administration (CL/F), and apparent volume of distribution during terminal phase (VZ/F). […]
# half-life values compiled below
Readout Name: half-life

smiles_input=C#C[C@]1(O)CC[C@H]2[C@@H]3CCC4=CC(=O)CC[C@@H]4[C@H]3CC[C@@]21CC endpoint_result="50 h"
smiles_input=CC(C)c1nc(N(C)S(C)(=O)=O)nc(-c2ccc(F)cc2)c1/C=C/[C@@H](O)C[C@@H](O)CC(=O)O endpoint_result="18.5 h"
smiles_input=C#C[C@]1(O)CC[C@H]2[C@@H]3CCc4cc(O)ccc4[C@H]3CC[C@@]21C endpoint_result="30 h"

---

Experiment Summary: Plasma PK of rosuvastatin and oral contraceptives with and without rucaparib (phase 1 DDI study, noncompartmental analysis)
Assay type: in vivo, human
Test Settings: human, plasma, po, 600 mg, with rucaparib 600 mg BID (day 19); single oral dose; plasma; read-out: AUC0–inf, Mean (SD)
Catalogue of AUC(0-inf) readings, one per entry.
Readout Name: AUC(0-inf) (ng·h/mL)

smiles_input=C#C[C@]1(O)CC[C@H]2[C@@H]3CCc4cc(O)ccc4[C@H]3CC[C@@]21C output_unit=ng·h/mL endpoint_result=1.49
smiles_input=C#C[C@]1(O)CC[C@H]2[C@@H]3CCC4=CC(=O)CC[C@@H]4[C@H]3CC[C@@]21CC output_unit=ng·h/mL endpoint_result=109
smiles_input=CC(C)c1nc(N(C)S(C)(=O)=O)nc(-c2ccc(F)cc2)c1/C=C/[C@@H](O)C[C@@H](O)CC(=O)O output_unit=ng·h/mL endpoint_result=276

---

Experiment Summary: Plasma PK of rosuvastatin and oral contraceptives with and without rucaparib (phase 1 DDI study, noncompartmental analysis)
Type: in vivo, human
Test Settings: human, plasma, po, without rucaparib (day 1); single oral dose; read-out: VZ/F, GM (%CV)
Measured Vd/F, listed per entry.
Readout Name: Vd/F (L)

compound="C#C[C@]1(O)CC[C@H]2[C@@H]3CCC4=CC(=O)CC[C@@H]4[C@H]3CC[C@@]21CC [levonorgestrel]" endpoint_result=103
compound="C#C[C@]1(O)CC[C@H]2[C@@H]3CCc4cc(O)ccc4[C@H]3CC[C@@]21C [ethinylestradiol]" endpoint_result=772
compound="CC(C)c1nc(N(C)S(C)(=O)=O)nc(-c2ccc(F)cc2)c1/C=C/[C@@H](O)C[C@@H](O)CC(=O)O [rosuvastatin]" endpoint_result=3490

---

Experiment Summary: Plasma PK of rosuvastatin and oral contraceptives with and without rucaparib (phase 1 DDI study, noncompartmental analysis)
Format: in vivo, human
Test Settings: human, plasma, po, 600 mg, with rucaparib 600 mg BID (day 19); single oral dose; read-out: VZ/F, Median (range)
Property: Vd/F; scope: individual molecules
Readout Name: Vd/F

smiles_input=C#C[C@]1(O)CC[C@H]2[C@@H]3CCC4=CC(=O)CC[C@@H]4[C@H]3CC[C@@]21CC readout_name=Vd/F endpoint_result="85.6 L"
smiles_input=C#C[C@]1(O)CC[C@H]2[C@@H]3CCc4cc(O)ccc4[C@H]3CC[C@@]21C readout_name=Vd/F endpoint_result="620 L"
smiles_input=CC(C)c1nc(N(C)S(C)(=O)=O)nc(-c2ccc(F)cc2)c1/C=C/[C@@H](O)C[C@@H](O)CC(=O)O readout_name=Vd/F endpoint_result="1840 L"

Source of measurements: paper PMC8484168
